melting point: recorded values

Example entries begin here.
Name the reported melting point value associated with the molecule Cc1cc(OCc2cccc3cnn(-c4ccc(C(F)(F)F)cc4)c23)ccc1OC(C)(C)C(=O)O [Example 96]
124 to 126 °C

Name the reported melting point value associated with the molecule CC(C)(Oc1ccc(SCCc2cccc3cn(-c4ccc(C(F)(F)F)cc4)nc23)cc1)C(=O)O [Example 50]
112 to 114 °C

Name the reported melting point value associated with the molecule CC(Sc1ccc2c(CC(=O)O)csc2c1)c1cccc2cn(-c3ccc(C(F)(F)F)cc3)nc12 (racemic) [Example 11]
76 to 78 °C

Then there is this molecule:
Name the reported melting point value associated with the molecule CC(C)(Oc1ccc(OCc2cccc3cnn(-c4ccc(C(F)(F)F)cc4)c23)cc1)C(=O)O [Example 100]
146 to 149 °C

---

melting point: recorded values

Example entries begin here.
Name the reported melting point value associated with the compound Cc1cc(OC(C)c2cccc3cn(-c4ccc(C(F)(F)F)cc4)nc23)ccc1OC(C)(C)C(=O)O (racemic)
139 to 141 °C

Name the reported melting point value associated with the compound CC(C)(Oc1ccc(OCc2cccc3c2cnn3-c2ccc(C(F)(F)F)cc2)cc1)C(=O)O
128 to 130 °C

Name the reported melting point value associated with the compound Cc1cc(OC(CCC(F)(F)F)c2cccc3c2cnn3-c2ccc(C(F)(F)F)cc2)ccc1OC(C)(C)C(=O)O (racemic)
218 to 222 °C

Name the reported melting point value associated with the compound Cc1cc(SC(C)(C)c2cccc3cn(-c4ccc(C(F)(F)F)cc4)nc23)ccc1OCC(=O)O
118 to 120 °C

Name the reported melting point value associated with the compound CC(C)(Oc1ccc(SCc2cccc3cnn(-c4ccc(C(F)(F)F)cc4)c23)cc1)C(=O)O
125 to 128 °C

Next:
Name the reported melting point value associated with the compound Cc1cc(SCCc2cccc3cn(-c4ccc(C(F)(F)F)cc4)nc23)ccc1OCC(=O)O
137 to 139 °C

Name the reported melting point value associated with the compound Cc1cc(SCc2cccc3nn(-c4ccc(C(F)(F)F)cc4)cc23)ccc1OC(C)(C)C(=O)O
125 to 127 °C

---

melting point: recorded values

Name the reported melting point value associated with the compound CCc1cc(SC(C)(C)c2cccc3cn(-c4ccc(C(F)(F)F)cc4)nc23)ccc1OCC(=O)O
114 to 116 °C

Name the reported melting point value associated with the compound Cc1cc(SCc2cccc3nn(-c4ccc(C(F)(F)F)cc4)cc23)ccc1OCC(=O)O
105 to 108 °C

Name the reported melting point value associated with the compound Cc1cc(OCc2ccc3nn(-c4ccc(C(F)(F)F)cc4)cc3c2)ccc1OC(C)(C)C(=O)O
164 to 166 °C

Name the reported melting point value associated with the compound Cc1cc(SC(c2ccccc2)c2cccc3c2cnn3-c2ccc(C(F)(F)F)cc2)ccc1OC(C)(C)C(=O)O (racemic)
181 to 186 °C

---

melting point: recorded values

Example entries begin here.
Name the reported melting point value associated with the molecule CC(Sc1ccc(OC(C)(C)C(=O)O)cc1)c1cccc2cn(-c3ccc(C(F)(F)F)cc3)nc12 (racemic) [Example 42]
150 to 152 °C

Name the reported melting point value associated with the molecule Cc1cc(SCc2cccc3c2cnn3-c2ccc(C(F)(F)F)cc2)ccc1CCC(=O)O [Example 32]
113 to 115 °C

Name the reported melting point value associated with the molecule Cc1cc(OC(C)c2ccc3cn(-c4ccc(C(F)(F)F)cc4)nc3c2)ccc1OC(C)(C)C(=O)O (racemic) [Example 57]
156 to 158 °C

Then there is this molecule:
Name the reported melting point value associated with the molecule CC(Sc1ccc(OC(C)(C)C(=O)O)cc1)c1cccc2c1cnn2-c1ccc(C(F)(F)F)cc1 (racemic) [Example 86]
85 to 90 °C

---

melting point: recorded values

Example entries begin here.
Name the reported melting point value associated with the compound Cc1cc(SCc2ccc3cn(-c4ccc(C(F)(F)F)cc4)nc3c2)ccc1CCC(=O)O
130 to 132 °C

Name the reported melting point value associated with the compound O=C(O)Cc1cccc(SCc2cccc3cn(-c4ccc(C(F)(F)F)cc4)nc23)c1
147 to 149 °C

Name the reported melting point value associated with the compound O=C(O)Cc1csc2cc(SCc3cccc4nn(-c5ccc(C(F)(F)F)cc5)cc34)ccc12
183 to 185 °C

Name the reported melting point value associated with the compound CCc1cc(OCc2ccc3cn(-c4ccc(C(F)(F)F)cc4)nc3c2)ccc1CCC(=O)O
190 to 192 °C

Name the reported melting point value associated with the compound CCc1cc(SC(C)c2cccc3cn(-c4ccc(C(F)(F)F)cc4)nc23)ccc1OCC(=O)O (racemic)
65 to 67 °C

Name the reported melting point value associated with the compound CC(C)(Oc1ccc(OCc2ccc3cn(-c4ccc(C(F)(F)F)cc4)nc3c2)cc1)C(=O)O
199 to 201 °C

Name the reported melting point value associated with the compound CC(Oc1ccc(SC(C)(C)C(=O)O)cc1)c1cccc2cn(-c3ccc(C(F)(F)F)cc3)nc12 (racemic)
158 to 160 °C

Next:
Name the reported melting point value associated with the compound Cc1cc(SC(C)c2ccc3nn(-c4ccc(C(F)(F)F)cc4)cc3c2)ccc1OC(C)(C)C(=O)O (racemic)
70 to 72 °C

---

melting point: recorded values

Example entries begin here.
Name the reported melting point value associated with the compound CC(C)(Oc1ccc(COCc2ccc3cn(-c4ccc(C(F)(F)F)cc4)nc3c2)cc1)C(=O)O [Example 56]
129 to 131 °C

Name the reported melting point value associated with the compound O=C(O)Cc1csc2cc(SCc3cccc4cn(-c5ccc(C(F)(F)F)cc5)nc34)ccc12 [Example 5]
141 to 143 °C

Name the reported melting point value associated with the compound CCc1cc(OCc2cccc3cn(-c4ccc(C(F)(F)F)cc4)nc23)ccc1CCC(=O)O [Example 7]
157 to 159 °C

Next:
Name the reported melting point value associated with the compound Cc1cc(OCc2cccc3cn(-c4ccc(C(F)(F)F)cc4)nc23)ccc1CCC(=O)O [Example 6]
133 to 135 °C

Name the reported melting point value associated with the compound CCc1cc(SCc2cccc3nn(-c4ccc(C(F)(F)F)cc4)cc23)ccc1OCC(=O)O [Example 27]
65 to 70 °C

---

melting point: recorded values

Example entries begin here.
Name the reported melting point value associated with the compound Cc1cc(SCc2cccc3cnn(-c4ccc(C(F)(F)F)cc4)c23)ccc1OC(C)(C)C(=O)O
154 to 158 °C

Name the reported melting point value associated with the compound Cc1cc(SC(C)c2cccc3cn(-c4ccc(C(F)(F)F)cc4)nc23)ccc1OCC(=O)O (racemic)
62 to 64 °C

Name the reported melting point value associated with the compound Cc1cc(OC(c2ccccc2)c2cccc3c2cnn3-c2ccc(C(F)(F)F)cc2)ccc1OC(C)(C)C(=O)O (racemic)
140 to 145 °C

Name the reported melting point value associated with the compound CC(C)(Oc1ccc(OC(CCC(F)(F)F)c2cccc3c2cnn3-c2ccc(C(F)(F)F)cc2)cc1)C(=O)O (racemic)
175 to 180 °C

Name the reported melting point value associated with the compound CC(Sc1ccc(OC(C)(C)C(=O)O)cc1)c1ccc2nn(-c3ccc(C(F)(F)F)cc3)cc2c1 (racemic)
109 to 111 °C

Name the reported melting point value associated with the compound Cc1cc(OC(C)c2cccc3nn(-c4ccc(C(F)(F)F)cc4)cc23)ccc1OC(C)(C)C(=O)O (racemic)
130 to 132 °C

Name the reported melting point value associated with the compound CC(Oc1ccc(OC(C)(C)C(=O)O)cc1)c1cccc2cn(-c3ccc(C(F)(F)F)cc3)nc12 (racemic)
130 to 132 °C

Name the reported melting point value associated with the compound Cc1cc(SCc2cccc3cnn(-c4ccc(C(F)(F)F)cc4)c23)ccc1OCC(=O)O
118 to 121 °C

Then there is this compound:
Name the reported melting point value associated with the compound CC(C)(Oc1ccc(SCc2ccc3cn(-c4ccc(C(F)(F)F)cc4)nc3c2)cc1)C(=O)O
176 to 178 °C
